# Tested on: HBsAg
# Assay procedure: HBsAg assay: inhibition of HBsAg in HepG2.2.15 cells (chemiluminescence immunoassay of supernatant)
# Type: cell-based, hepatitis B virus
# Condition notes: read-out: sAg EC50; HepG2.2.15 cells; HBsAg in supernatant at day 6 after exposure to compound; 0.5% DMSO
# Procedure: Inhibition of HBsAg was determined in HepG2.2.15 cells. Cells were maintained in culture medium containing 10% fetal calf serum, […], Glutamine, penicillin/streptomycin. Cells were seeded in 96-well collagen-coated plate at a density of 30,000 cells/well. Serially diluted compounds were added to cells next day at the final DMSO concentration of 0.5%. Cells were incubated with compounds for 2-3 days, after which medium was removed. […]
pEC50: −log10 of the molar value.
Values of pEC50 greater than or equal to 7 map to YES; values below map to NO.

Consider the following illustrative entries.
COc1cc(C2CC2c2ccc(-c3ncccn3)nc2)cc(F)c1F (single isomer, unassigned) [Example 125] : YES
CN(C)c1cc(C2CC2c2cnc(-c3ncccn3)nc2)ccc1F (single isomer, unassigned) [Example 64] : NO
Fc1ccc(C2CC2c2cnc(-c3ncccn3)nc2)cc1N1CCCCC1 (single isomer, unassigned) [Example 196] : NO
COc1cc(C2CC2c2cnc(-c3ncccn3)nc2-c2ccc3nc(C)sc3c2)ccc1F (single isomer, unassigned) [Example 141] : NO
COc1cc(C2CC2c2cnc(-c3ncccn3)nc2)ccc1F (single isomer, unassigned) [Example 10] : YES

Switching to the query record.
Decide: is the reported value of pEC50 for CC(=O)N1CC[C@@H](Nc2cc(C3CC3c3cnc(-c4ncccn4)nc3)cc(F)c2F)C1 (single isomer, unassigned) [Example 226] equal to or greater than 7? NO
